// provenance: paper PMC10313671

PROCEDURE TEXT: Peptide hydrogel formation, vial-inverting method
Type: physicochemical
Design: key: 0: no hydrogel; 1: hydrogel
MEASUREMENT CONDITIONS: peptide concentration 120 mM; vial-inverting method; 1 = hydrogel, 0 = no hydrogel
Where a SMILES comes first, the peptide text is derived from it.
MEASURED QUANTITY: GELATION

MOLECULE	GELATION
N[C@@H](Cc1c[nH]c2ccccc12)C(=O)N1CCC[C@H]1C(=O)N[C@@H](Cc1ccc(O)cc1)C(=O)N[C@@H](Cc1ccc(O)cc1)C(=O)O [WPYY] (H-WPYY-OH)	0

Prompt line: I am curious: what GELATION value has been reported for C[C@H](NC(=O)[C@H](Cc1ccc(O)cc1)NC(=O)[C@@H](N)Cc1ccccc1)C(=O)N[C@@H](Cc1ccc(O)cc1)C(=O)O [FYAY] (H-FYAY-OH) ?
Response line: 1

Prompt line: I am curious: what GELATION value has been reported for CC(C)C[C@H](NC(=O)[C@H](C)NC(=O)[C@@H](N)CC(C)C)C(=O)N[C@@H](CCCNC(=N)N)C(=O)O [LALR] (H-LALR-OH) ?
Response line: 0

Prompt line: I am curious: what GELATION value has been reported for CC[C@H](C)[C@H](N)C(=O)N[C@@H](Cc1c[nH]c2ccccc12)C(=O)N[C@H](C(=O)N[C@H](C(=O)O)[C@@H](C)CC)[C@@H](C)CC [IWII] (H-IWII-OH) ?
Response line: 0

Prompt line: I am curious: what GELATION value has been reported for CC(C)[C@H](NC(=O)[C@@H](N)Cc1ccc(O)cc1)C(=O)N[C@@H](Cc1ccccc1)C(=O)N[C@@H](C)C(=O)O [YVFA] (H-YVFA-OH) ?
Response line: 1

Prompt line: I am curious: what GELATION value has been reported for CSCC[C@H](NC(=O)[C@@H](N)Cc1ccccc1)C(=O)N[C@@H](Cc1ccc(O)cc1)C(=O)N[C@@H](CO)C(=O)O [FMYS] (H-FMYS-OH) ?
Response line: 0

Prompt line: I am curious: what GELATION value has been reported for C[C@@H](O)[C@H](N)C(=O)N[C@H](C(=O)N[C@H](C(=O)N[C@H](C(=O)O)[C@@H](C)O)[C@@H](C)O)[C@@H](C)O [TTTT] (H-TTTT-OH) ?
Response line: 0

Prompt line: I am curious: what GELATION value has been reported for NCCCC[C@H](NC(=O)[C@H](Cc1ccccc1)NC(=O)[C@H](Cc1ccccc1)NC(=O)[C@@H](N)CCC(=O)O)C(=O)O [EFFK] (H-EFFK-OH) ?
Response line: 0

###

PROCEDURE TEXT: Transmission electron microscope (negative staining) of peptide assemblies
MEASUREMENT CONDITIONS: TEM, negative staining with uranyl acetate, 120 kV; line of the table gives 30 mM
Where a SMILES comes first, the peptide text is derived from it.
MEASURED QUANTITY: Morphology

> print(dat)
                                   compound  measured.quantity  recorded.value
1  CC[C@H](C)[C@H](NC(=O)[C@@H](NC(=O)[C@@H](NC(=O)[C@@H](N)CC(C)C)C(C)C)[C@@H](C)CC)C(=O)O [LVII] (H-LVII-OH)         Morphology           sheet

###

PROCEDURE TEXT: Peptide hydrogel formation, vial-inverting method
Assay type: physicochemical
MEASUREMENT CONDITIONS: concentration at which the state was recorded: lowest of 30, 60, 90, 120 mM that gave a gel; 120 mM for non-gelating peptides
Description: After validating the efficiency of APHC in predicting tetrapeptide hydrogels, we detailed the phase state of 165 synthesized tetrapeptides and the observed assembly behavior in an aqueous solution. This work defines hydrogel formation as a self-supporting, non-flowing mixture of water and hydrogelator by the vial-inverting method. […]
Where a SMILES comes first, the peptide text is derived from it.
Overview of reported Concentration across a group of molecules:
Include the unit right after the number.

Solved entries (count: 2):
> print(dat)
                                   molecule  recorded.value
1  NCC(=O)N[C@@H](Cc1ccccc1)C(=O)N[C@@H](Cc1ccccc1)C(=O)N[C@@H](Cc1ccc(O)cc1)C(=O)O [GFFY] (H-GFFY-OH)        30000 µM
2  NCCCC[C@H](NC(=O)[C@H](CCCCN)NC(=O)[C@H](CCC(=O)O)NC(=O)[C@@H](N)CCC(=O)O)C(=O)O [EEKK] (H-EEKK-OH)       120000 µM

Prompt line: I am curious: what Concentration value has been reported for CC(C)[C@H](N)C(=O)N[C@@H](CO)C(=O)N[C@@H](Cc1c[nH]c2ccccc12)C(=O)N[C@@H](Cc1ccc(O)cc1)C(=O)O [VSWY] (H-VSWY-OH) ?
Response line: 120000 µM

###

Overview of reported GELATION across a group of compounds:
PROCEDURE TEXT: Peptide hydrogel formation, vial-inverting method
Format: physicochemical
Parameters: key: 0: no hydrogel; 1: hydrogel
MEASUREMENT CONDITIONS: peptide concentration 120 mM; vial-inverting method; 1 = hydrogel, 0 = no hydrogel
Where a SMILES comes first, the peptide text is derived from it.
// print number alone

Solved entries (count: 2):
> print(dat)
                                   compound  recorded.value
1  NCCCC[C@H](NC(=O)[C@H](CCCCN)NC(=O)[C@H](CCC(=O)O)NC(=O)[C@@H](N)CCC(=O)O)C(=O)O [EEKK] (H-EEKK-OH)               0
2  CSCC[C@H](N)C(=O)N[C@H](C(=O)N[C@@H](CCC(N)=O)C(=O)NCC(=O)O)C(C)C [MVQG] (H-MVQG-OH)               0

Prompt line: I am curious: what GELATION value has been reported for CC[C@H](C)[C@H](NC(=O)[C@H](Cc1ccccc1)NC(=O)[C@H](Cc1c[nH]c2ccccc12)NC(=O)[C@@H](N)CC(C)C)C(=O)O [LWFI] (H-LWFI-OH) ?
Response line: 0

Prompt line: I am curious: what GELATION value has been reported for CC(C)[C@H](NC(=O)[C@H](C)NC(=O)[C@@H](N)[C@@H](C)O)C(=O)N[C@@H](Cc1ccccc1)C(=O)O [TAVF] (H-TAVF-OH) ?
Response line: 1

Prompt line: I am curious: what GELATION value has been reported for O=C(O)[C@@H]1CCCN1C(=O)[C@@H]1CCCN1C(=O)[C@@H]1CCCN1C(=O)[C@@H]1CCCN1 [PPPP] (H-PPPP-OH) ?
Response line: 0

Prompt line: I am curious: what GELATION value has been reported for C[C@H](NC(=O)[C@@H](N)Cc1ccccc1)C(=O)N[C@@H](Cc1ccccc1)C(=O)N1CCC[C@H]1C(=O)O [FAFP] (H-FAFP-OH) ?
Response line: 0

###

PROCEDURE TEXT: Peptide hydrogel formation, vial-inverting method
Assay type: physicochemical
MEASUREMENT CONDITIONS: 30 mM peptide in ultrapure water; pH adjusted to 6.5-8.5 with 1 N NaOH, ultrasonication, standing 48 h; vial-inverting method; concentration raised 30/60/90/120 mM until gelation
Where a SMILES comes first, the peptide text is derived from it.

COMPOUND	State
N[C@@H](Cc1c[nH]c2ccccc12)C(=O)N[C@@H](CCC(=O)O)C(=O)N[C@@H](Cc1ccccc1)C(=O)N[C@@H](Cc1ccccc1)C(=O)O [WEFF] (H-WEFF-OH)	gel
CC[C@H](C)[C@H](NC(=O)[C@@H](NC(=O)[C@@H](N)Cc1c[nH]c2ccccc12)[C@@H](C)O)C(=O)N[C@@H](Cc1ccccc1)C(=O)O [WTIF] (H-WTIF-OH)	gel
CC(C)C[C@H](NC(=O)[C@H](C)NC(=O)[C@@H](N)Cc1c[nH]c2ccccc12)C(=O)N[C@@H](Cc1c[nH]c2ccccc12)C(=O)O [WALW] (H-WALW-OH)	gel

###

PROCEDURE TEXT: Peptide hydrogel formation, vial-inverting method
Type: physicochemical
MEASUREMENT CONDITIONS: 120 mM peptide (highest tested) in ultrapure water; pH 6.5-8.5 (1 N NaOH), ultrasonication, standing 48 h; vial-inverting method; precipitate, sol, suspension = no gel
Where a SMILES comes first, the peptide text is derived from it.
MEASURED QUANTITY: State

MOLECULE	RECORDED VALUE
N[C@@H](CO)C(=O)N[C@@H](Cc1c[nH]c2ccccc12)C(=O)N[C@@H](Cc1ccc(O)cc1)C(=O)N[C@@H](Cc1ccccc1)C(=O)O [SWYF] (H-SWYF-OH)	gel
CC[C@H](C)[C@H](NC(=O)[C@H](Cc1ccc(O)cc1)NC(=O)[C@@H]1CCCN1C(=O)[C@@H](N)Cc1ccc(O)cc1)C(=O)O [YPYI] (H-YPYI-OH)	sol
CSCC[C@H](NC(=O)[C@H](CCSC)NC(=O)[C@H](CCSC)NC(=O)[C@@H](N)CCSC)C(=O)O [MMMM] (H-MMMM-OH)	gel
CC(C)C[C@H](NC(=O)[C@@H](N)C(C)C)C(=O)N[C@H](C(=O)N[C@H](C(=O)O)C(C)C)C(C)C [VLVV] (H-VLVV-OH)	gel

Prompt line: I am curious: what State value has been reported for N[C@@H](Cc1ccccc1)C(=O)N[C@@H](CS)C(=O)N[C@@H](Cc1c[nH]c2ccccc12)C(=O)N[C@@H](Cc1c[nH]c2ccccc12)C(=O)O [FCWW] (H-FCWW-OH) ?
Response line: gel
